- Tested Target: KRAS G12D (Homo sapiens (Human), UniProt P01116+P62937, G12D)
- Sequence (P01116 other isoform, or with tags, fused parts or gaps G12D): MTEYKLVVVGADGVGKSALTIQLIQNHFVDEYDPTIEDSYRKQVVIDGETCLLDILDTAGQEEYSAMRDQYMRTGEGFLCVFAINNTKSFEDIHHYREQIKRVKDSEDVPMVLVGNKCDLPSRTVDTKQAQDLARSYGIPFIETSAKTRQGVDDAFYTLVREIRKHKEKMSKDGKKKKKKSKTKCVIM
- Sequence (P62937 whole entry): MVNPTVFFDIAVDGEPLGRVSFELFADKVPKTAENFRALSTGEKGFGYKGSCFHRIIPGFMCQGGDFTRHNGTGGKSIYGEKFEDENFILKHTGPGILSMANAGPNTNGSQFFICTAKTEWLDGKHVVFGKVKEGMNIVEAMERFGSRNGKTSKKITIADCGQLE
- Method Summary: Ras-Raf disruption/FRET/MOA assay (BRAF RBD, Cyclophilin A)
- Type: biochemical
- Measurement Context: read-out: KRAS G12D FRET IC50
pIC50: −log10 of the molar value.
Measured pIC50 values are reported for all entries that follow.

{"Compound": "CCn1c(-c2cccnc2[C@H](C)OC)c2c3cc(ccc31)-c1csc(n1)C[C@H](NC(=O)[C@H](C(C)C)N(C)C(=O)N(C)[C@H]1CCCN(C)C1)C(=O)N1CCC[C@H](N1)C(=O)OCC(C)(C)C2 [Compound A588]", "pIC50": "6.00 to 7.00"}
{"Compound": "CCn1c(-c2cccnc2[C@H](C)OC)c2c3cc(ccc31)-c1csc(n1)C[C@H](NC(=O)[C@H](C(C)C)N1CCCN(C)C1=O)C(=O)N1CCC[C@H](N1)C(=O)OCC(C)(C)C2 [Compound A317]", "pIC50": "< 5.00"}
{"Compound": "CCn1c(-c2cccnc2[C@H](C)OC)c2c3cc(ccc31)-c1cc(O)cc(c1)C[C@H](NS(=O)(=O)CC1CC1)C(=O)N1CCC[C@H](N1)C(=O)OCC(C)(C)C2 [Compound A200]", "pIC50": "< 5.00"}
{"Compound": "CCO[C@@H]1c2nc(cs2)-c2ccc3c(c2)c(c(-c2cc(C4CCN(C5COC5)CC4)cnc2[C@H](C)OC)n3CC)CC(C)(C)COC(=O)[C@@H]2CCCN(N2)C(=O)[C@H]1NC(=O)[C@H]1[C@H](C)[C@@H]1C [Compound A449]", "pIC50": "5.00 to 6.00"}
{"Compound": "CCn1c(-c2cnccc2COC)c2c3cc(ccc31)-c1cc(O)cc(c1)C[C@H](NC(=O)[C@H](C(C)C)N(C)C(=O)[C@H]1CCN(C(=O)C(C)(C)N)C1)C(=O)N1CCC[C@H](N1)C(=O)OCC(C)(C)C2 [Compound A15]", "pIC50": "6.00 to 7.00"}
